- MEASUREMENT PROTOCOL: NCI Yeast Anticancer Drug Screen. Data for the cln2 rad14 strain (AID 165);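 note: 0% = growth equal to vehicle treated cultures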
- CONDITIONS: S. cerevisiae cln2 rad14 strain, at 50.0 µM, active compounds read high
Compounds without any hit were thinned out: in the full panel of roughly 79,000, 15% have a hit.
Listing of entries alongside the reported growth inhibition.
I only need the number, in %, no unit after it.

Example results:
{"columns": ["COMPOUND", "growth inhibition, %"],
 "data": [
  ["CCN/C(C)=C\\C(=O)OCC", -17.2],
  ["COc1cc(C(=O)Nc2ccc(S(=O)(=O)Nc3nc(C)cc(C)n3)cc2)cc(OC)c1OC", 10.7]
]}

Query: Given CC(C)=CCc1c(C)cc2cc3c(c(O)c2c1O)C(O)=CC(=O)C3(CC=C(C)C)C/C=C(\C)CO (configuration not stated) , state its recorded growth inhibition.
Response: 47.2

Query: Given "O=C(NNc1ccccc1)c1ccc(Cl)cc1Cl" , state its recorded growth inhibition.
Response: -0.05

These entries and their values trace back to PubChem BioAssay (NCI).
